- ASSAY PROTOCOL: Phase 1 part A: PK after single and multiple once-daily oral doses
- Type: in vivo, human
- COND: human, plasma, po, 25 mg, Day 1, 25 mg, White; mean (CV%)
OBSERVABLE: AUC

Q: Respond only with AUC recorded for `Cn1c(=O)oc2ccc(-c3ccc(C[C@@H](C#N)NC(=O)[C@@H]4CNCCCO4)cc3)cc21`
Result: 1720 ng·h/mL

====

- ASSAY PROTOCOL: Phase 1 part A: PK after single and multiple once-daily oral doses
- Format: in vivo, human
- COND: human, plasma, po, 40 mg, Day 30, 40 mg once daily, Japanese; mean (CV%); read-out: t1/2 (converted)
OBSERVABLE: half-life
Number first, unit second.

Q: Read off the recorded half-life for `Cn1c(=O)oc2ccc(-c3ccc(C[C@@H](C#N)NC(=O)[C@@H]4CNCCCO4)cc3)cc21`
Result: 21.9 h

====

- ASSAY PROTOCOL: Phase 1 part B: PK of single 40 mg oral dose, fasted vs fed (food effect)
- Format: in vivo, human
- COND: human, plasma, oral, 40 mg, Japanese n=9, fasted; least squares mean
OBSERVABLE: AUC(0-inf) (ng·h/mL)
Answer format: numeric, ng·h/mL implied, no suffix.

Q: Indicate its recorded AUC(0-inf); the molecule in question is `Cn1c(=O)oc2ccc(-c3ccc(C[C@@H](C#N)NC(=O)[C@@H]4CNCCCO4)cc3)cc21`
Result: 5270

====

- ASSAY PROTOCOL: Phase 1 part B: PK of single 40 mg oral dose, fasted vs fed (food effect)
- Type: in vivo, human
- COND: human, plasma, oral, 40 mg, White n=10, fed; least squares mean
OBSERVABLE: AUC(0-inf) (ng·h/mL)
I only need the number, in ng·h/mL, no unit after it.

Q: Give me measured AUC(0-inf), please, for this molecule: `Cn1c(=O)oc2ccc(-c3ccc(C[C@@H](C#N)NC(=O)[C@@H]4CNCCCO4)cc3)cc21`
Result: 6180

====

- ASSAY PROTOCOL: Phase 1 part B: PK of single 40 mg oral dose, fasted vs fed (food effect)
- Type: in vivo, human
- COND: human, plasma, po, 40 mg, 40 mg single oral dose, White, fed; median (range); read-out: Tmax
OBSERVABLE: Tmax (h)
Value expressed in h; do not type the unit.

Q: Please report Tmax for the following compound: `Cn1c(=O)oc2ccc(-c3ccc(C[C@@H](C#N)NC(=O)[C@@H]4CNCCCO4)cc3)cc21`
Result: 2

====

- ASSAY PROTOCOL: Phase 1 part A: PK after single and multiple once-daily oral doses
- Format: in vivo, human
- COND: human, plasma, po, 10 mg, Day 1, 10 mg, Japanese; mean (CV%)
OBSERVABLE: AUC(0-inf) (ng·h/mL)
Kindly answer with a numeric value in ng·h/mL, unit omitted.

Q: Assign AUC(0-inf) to the following record: `Cn1c(=O)oc2ccc(-c3ccc(C[C@@H](C#N)NC(=O)[C@@H]4CNCCCO4)cc3)cc21`
Result: 1030

====

- ASSAY PROTOCOL: Phase 1 part B: PK of single 40 mg oral dose, fasted vs fed (food effect)
- Format: in vivo, human
- COND: human, plasma, po, 40 mg, 40 mg single oral, fasted, Japanese
OBSERVABLE: AUC(0-t) (ng·h/mL)
I only need the number, in ng·h/mL, no unit after it.

Q: Look up AUC(0-t) of `Cn1c(=O)oc2ccc(-c3ccc(C[C@@H](C#N)NC(=O)[C@@H]4CNCCCO4)cc3)cc21` and report it.
Result: 4820
